Test system: SK-MEL-5 melanoma
Test: NCI tumour cell line growth inhibition, 48 h
MEASUREMENT TYPE: TGI

COC(=O)CCC(C)[C@H]1CCC2C3C(C[C@H](OC(C)=O)[C@@]21C)[C@@]1(C)CCC2(C[C@H]1C[C@H]3OC(C)=O)OOC1(CCCCC1)OO2 (stereo partly drawn) | > 100 µM
Cc1cc(C)nc(NS(=O)(=O)c2ccc(NC(=O)c3cccc4c(N)c5ccccc5nc34)cc2)n1 | > 100 µM

Consider the molecule shown here: COC(=O)C1=C(c2ccc(Cl)cc2)C(O)N=C(NN)N1 (stereo not drawn) What is its recorded TGI?
> 100 µM

* * *

Test system: UACC-257 melanoma
Assay: NCI tumour cell line growth inhibition, 48 h
MEASUREMENT TYPE: TGI

Below, 3 compounds whose answers are already recorded.
Cc1cc(Cl)ccc1Nc1nc(C(F)(F)F)ccc1C(=O)Nc1cccc(C(F)(F)F)c1 | 11.6 µM
COc1cc(Cc2ccc3c(c2C#N)N(C)c2ccccc2S3)cc(OC)c1OC | > 100 µM
CC1=NN(c2ccccc2)C(=O)C1N=Nc1ccc(S(N)(=O)=O)cc1 (stereo not drawn) | > 100 µM

Which measured TGI value corresponds to O=C1NN=CN2C(=O)CCC12 (stereo not drawn) ?
> 100 µM

# input compound: Cc1ccccc1NC(=O)c1cc2ccccc2cc1O ; wanted: its TGI
16.2 µM

What does the record list as TGI for CC#Cc1c(C#CC)c(OC)c2c(c1OC)C(=O)c1ccccc1C2=O ?
> 100 µM

For [O-][n+]1c2cc(CN3CCOCC3)c(CN3CCOCC3)cc2[n+]([O-])c2c(O)cccc21 , what is its reported TGI?
16.3 µM

TGI for Oc1ccc(Cn2c(-c3ccc(O)cc3)nc3ccccc32)cc1 ?
> 100 µM

Look at this compound and give its reported TGI. CCCC(CCC)C(=O)OCC1(CO)C/C(=C\c2ccc(C(F)(F)F)cc2)C(=O)O1 (stereo not drawn)
33.4 µM

# lookup: TGI of c1ccc(/C(=N\Nc2ccc3ccccc3n2)c2ccccn2)cc1
3.48 µM

* * *

Test system: SF-295 CNS
Assay: NCI tumour cell line growth inhibition, 48 h
TGI values by entry

Some entries whose results are on file:
Cc1nc(N(CCO)CCO)c2sc(=S)n(-c3ccccc3)c2n1 | > 100 µM
COc1cc(Cc2ccc3c(c2C#N)N(C)c2ccccc2S3)cc(OC)c1OC | > 100 µM
CC(=O)n1c(-c2ccc(Cl)c(Cl)c2)cn(-c2ccc(Cl)cc2)c1=O | 28.8 µM
CC(C)=CCc1cc(C2COc3cc4c(c(O)c3C2=O)C=CC(C)(C)O4)c(O)cc1O (stereo not given) | 43.5 µM
COc1cc(NC(=O)c2cc(O)c(C/C=C(\C)CCC=C(C)C)c(O)c2)cc2c1O[C@]1(C)CC[C@@H](O)C(C)(C)[C@H]1C2 | 1.52 µM

# query: TGI of entry CC1=C(C(=O)NC(C)(C)C)CC(C(=O)NC(C)(C)C)C(C)N1 (stereo not given)
> 100 µM

Would you mind telling me what TGI value was observed for NC(=S)N/N=C/c1ccc(OC(=O)COc2ccccc2Cl)cn1 ?
> 100 µM

# lookup: TGI of CCCN(CCC)C(=O)c1c(Cl)c2cccnc2n2c(C)cnc12
> 100 µM

May I ask what TGI has been recorded for CC1(C)N=C(Oc2ccccc2)n2nccc2N1 ?
> 100 µM

Suppose we examine the compound COC(=O)CCC(C)[C@H]1CCC2C3C(C[C@H](OC(C)=O)[C@@]21C)[C@@]1(C)CCC2(C[C@H]1C[C@H]3OC(C)=O)OOC1(CCCCC1)OO2 (stereo not given in full) ; what TGI value has been reported?
80.4 µM

Given COC(=O)C1=C(c2ccc(Cl)cc2)C(O)N=C(NN)N1 (stereo not given) , state its recorded TGI.
> 100 µM
